B1: LINE1-full (parent)
chain: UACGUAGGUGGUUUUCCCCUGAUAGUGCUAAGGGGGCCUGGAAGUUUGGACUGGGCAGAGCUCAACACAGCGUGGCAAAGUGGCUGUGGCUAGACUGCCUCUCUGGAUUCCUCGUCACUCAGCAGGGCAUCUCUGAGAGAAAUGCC

- Variants of: B1
- PROTOCOL_DETAILS: self-cleavage, relative activity (ratio to wild type); higher = more cleavage; in vitro, sequencing; the parent is a self-cleaving ribozyme
Definition: the class of an entry is the range in label 0: < 0.4; label 1: ≥ 0.4 and < 1; label 2: ≥ 1 that contains its self-cleavage.

INSERT INTO results (mutation_list, category_label) VALUES
  ('G7U A141G', 'label 2'),
  ('U5G A107G', 'label 1'),
  ('G21A A50C', 'label 1'),
  ('A43U U132C', 'label 2');

// next entry
Category of G58U A141G : label 0
